# test.system: C-C chemokine receptor type 4 (Homo sapiens)
# assay.protocol: Displacement of [125I]CCl22 from human CCR4 receptor expressed in mouse B300-19 cells at 1 uM by SPA
# Assay type: cell-based
Listed below: inhibition values for each entry.

[
  {
    "structure.string": "COc1cc2nc(N3CCC(N4CCCC4)CC3)nc(N3CCCCC3)c2cc1OC",
    "inhibition": "19%"
  },
  {
    "structure.string": "COc1cc2nc(N3CCN(C(C)C)CC3)nc(NC3CCCCCC3)c2cc1OC",
    "inhibition": "68%"
  },
  {
    "structure.string": "COc1cc2nc(N3CCC(N4CCCC4)CC3)nc(N3CCOCC3)c2cc1OC",
    "inhibition": "2%"
  },
  {
    "structure.string": "COc1cc2nc(NC(C)C)nc(NC3CCCCCC3)c2cc1OC",
    "inhibition": "6%"
  },
  {
    "structure.string": "COc1cc2nc(N3CCC(N(C)C4CCCC4)CC3)nc(NC3CCCCCC3)c2cc1OC",
    "inhibition": "0%"
  },
  {
    "structure.string": "CCOC(=O)N1CCC(Nc2nc(N3CCC(N4CCCC4)CC3)nc3cc(OC)c(OC)cc23)CC1",
    "inhibition": "6%"
  },
  {
    "structure.string": "COc1cc2nc(NCc3ccccc3)nc(NC3CCCCCC3)c2cc1OC",
    "inhibition": "< 0%"
  }
]

* * *

# test.system: C-C chemokine receptor type 4 (Homo sapiens, UniProt P51679)
# assay.protocol: Antagonist activity at human CCR4 receptor expressed in mouse B300-19 cells by [35S]GTPgammaS binding assay
# Type: functional, cell-based
Each entry falls into one class according to its IC50; the ranges are group A (below 20 nM), group B (20 nM to below 200 nM), group C (200 nM or more)

[
  {
    "structure.string": "COc1cc2nc(N3CCC(N(C)C)CC3)nc(NC3CCCCCC3)c2cc1OC",
    "test.system": "C-C chemokine receptor type 4 (Homo sapiens, UniProt P51679)",
    "class": "group C"
  },
  {
    "structure.string": "COc1cc2nc(N3CCN(C4CCCCC4)CC3)nc(NC3CCCCCC3)c2cc1OC",
    "test.system": "C-C chemokine receptor type 4 (Homo sapiens, UniProt P51679)",
    "class": "group B"
  },
  {
    "structure.string": "COc1cc2nc(N3CCC(N(C)C4CCCC4)CC3)nc(NC3CCCCCC3)c2cc1OC",
    "test.system": "C-C chemokine receptor type 4 (Homo sapiens, UniProt P51679)",
    "class": "group A"
  },
  {
    "structure.string": "COc1cc2nc(N3CCC(N4CCCC4)CC3)nc(NC3CCCCC3)c2cc1OC",
    "test.system": "C-C chemokine receptor type 4 (Homo sapiens, UniProt P51679)",
    "class": "group C"
  },
  {
    "structure.string": "COc1cc2nc(N3CCC(N4CCCCC4)CC3)nc(NC3CCCCCC3)c2cc1OC",
    "test.system": "C-C chemokine receptor type 4 (Homo sapiens, UniProt P51679)",
    "class": "group A"
  },
  {
    "structure.string": "COc1cc2nc(N3CCC(N4CCC(F)CC4)CC3)nc(NC3CCCCCC3)c2cc1OC",
    "test.system": "C-C chemokine receptor type 4 (Homo sapiens, UniProt P51679)",
    "class": "group B"
  },
  {
    "structure.string": "COc1ccc2c(NC3CCCCCC3)nc(N3CCC(N4CCCC4)CC3)nc2c1",
    "test.system": "C-C chemokine receptor type 4 (Homo sapiens, UniProt P51679)",
    "class": "group A"
  },
  {
    "structure.string": "COc1cc2nc(N3CCC(N4CCCC4)CC3)nc(NC3CCCCCC3)c2cc1OC",
    "test.system": "C-C chemokine receptor type 4 (Homo sapiens, UniProt P51679)",
    "class": "group A"
  },
  {
    "structure.string": "COc1cc2nc(C3CCN(C4CCCCC4)CC3)nc(NC3CCCCCC3)c2cc1OC",
    "test.system": "C-C chemokine receptor type 4 (Homo sapiens, UniProt P51679)",
    "class": "group C"
  }
]

* * *

# test.system: C-C chemokine receptor type 4 (Homo sapiens, UniProt P51679)
# Sequence (P51679 whole entry): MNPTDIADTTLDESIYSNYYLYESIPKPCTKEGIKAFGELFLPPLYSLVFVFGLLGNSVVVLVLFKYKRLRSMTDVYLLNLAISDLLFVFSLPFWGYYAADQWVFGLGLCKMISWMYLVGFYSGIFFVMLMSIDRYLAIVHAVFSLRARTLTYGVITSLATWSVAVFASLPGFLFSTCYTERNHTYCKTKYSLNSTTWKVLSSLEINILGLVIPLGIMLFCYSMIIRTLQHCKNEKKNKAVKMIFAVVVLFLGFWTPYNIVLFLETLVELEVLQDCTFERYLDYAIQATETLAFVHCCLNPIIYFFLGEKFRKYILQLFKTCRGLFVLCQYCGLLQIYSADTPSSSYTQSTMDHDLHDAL
# assay.protocol: Displacement of [125I]CCl22 from human CCR4 receptor expressed in mouse B300-19 cells by SPA
# Type: cell-based
pIC50: −log10 of the molar value.
Lab note: compare pIC50 against 6. Equal or greater, write yes (1). Smaller, write no (0).

[
  {
    "structure.string": "COc1cc2nc(N3CCC(N4CCCC4)CC3)nc(NC3CCCCC3)c2cc1OC",
    "test.system": "C-C chemokine receptor type 4 (Homo sapiens, UniProt P51679)",
    "class": "no (0)"
  },
  {
    "structure.string": "COc1cc2nc(N3CCC(N4CCCCC4)CC3)nc(NC3CCCCCC3)c2cc1OC",
    "test.system": "C-C chemokine receptor type 4 (Homo sapiens, UniProt P51679)",
    "class": "yes (1)"
  },
  {
    "structure.string": "COc1cc2nc(N3CCC(N4CCCC4)CC3)nc(NC3CCCCCC3)c2cc1OC",
    "test.system": "C-C chemokine receptor type 4 (Homo sapiens, UniProt P51679)",
    "class": "yes (1)"
  }
]

* * *

Listed below: pIC50 values for each entry.
# test.system: C-C chemokine receptor type 4 (Homo sapiens)
# assay.protocol: Antagonist activity at human CCR4 receptor expressed in mouse B300-19 cells by [35S]GTPgammaS binding assay
# Type: functional, cell-based
pIC50: −log10 of the molar value.

[
  {
    "structure.string": "COc1cc2nc(N3CCC(N4CCCC4)CC3)nc(NC3CCCCCCC3)c2cc1OC",
    "pIC50": 6.70
  },
  {
    "structure.string": "COc1ccc2nc(N3CCC(N4CCCC4)CC3)nc(NC3CCCCCC3)c2c1",
    "pIC50": 7.51
  },
  {
    "structure.string": "COc1cc2nc(N3CCN(C(C)C)CC3)nc(NC3CCCCCC3)c2cc1OC",
    "pIC50": 6.66
  },
  {
    "structure.string": "COc1cc2nc(N3CCC(NC4CCCC4)CC3)nc(NC3CCCCCC3)c2cc1OC",
    "pIC50": 7.89
  }
]

* * *

# test.system: UniProtKB P51679
# assay.protocol: Displacement of [125I]CCl22 from human CCR4 receptor expressed in mouse B300-19 cells at 1 uM by SPA
# Format: cell-based
Listed below: inhibition values for each entry.
measured.metric: inhibition (%)

[
  {
    "molecule": "COc1cc2nc(N3CCC(N4CCCC4)CC3)nc(NC3CCCCCC3)c2cc1OC",
    "bound.operator": "=",
    "reported": 100
  },
  {
    "molecule": "COc1cc2nc(N3CCOCC3)nc(NC3CCCCCC3)c2cc1OC",
    "bound.operator": "=",
    "reported": 8
  },
  {
    "molecule": "COc1cc2nc(N3CCC(N4CCCC4)CC3)nc(NC3CCC(C(C)(C)C)CC3)c2cc1OC (stereo not given)",
    "bound.operator": "<",
    "reported": 0
  },
  {
    "molecule": "COc1cc2nc(NCCc3ccccc3)nc(NC3CCCCCC3)c2cc1OC",
    "bound.operator": "<",
    "reported": 0
  },
  {
    "molecule": "COc1cc2nc(N3CCC(Cc4ccccc4)CC3)nc(NC3CCCCCC3)c2cc1OC",
    "bound.operator": "<",
    "reported": 0
  },
  {
    "molecule": "COc1cc2nc(N3CCC(N4CCCC4)CC3)nc(NC3CCCCC3)c2cc1OC",
    "bound.operator": "=",
    "reported": 54
  },
  {
    "molecule": "COc1cc2nc(N3CCN(C4CCCCC4)CC3)nc(NC3CCCCCC3)c2cc1OC",
    "bound.operator": "=",
    "reported": 0
  },
  {
    "molecule": "COc1cc2nc(N3CCC(N4CCCC4)CC3)nc(N(C)C)c2cc1OC",
    "bound.operator": "<",
    "reported": 0
  },
  {
    "molecule": "COc1cc2nc(N3CCC(O)CC3)nc(NC3CCCCCC3)c2cc1OC",
    "bound.operator": "=",
    "reported": 3
  },
  {
    "molecule": "COc1cc2nc(N3CCC(NC4CCCC4)CC3)nc(NC3CCCCCC3)c2cc1OC",
    "bound.operator": "=",
    "reported": 4
  }
]
